Ref: patent US20170266186A1

Assay: clinical
Conditions: human, plasma, 5 mg/kg, Mean AUC0-24h, steady state (Day 8), cohort 3, 5 mg/kg
OUTCOME MEASURE: AUC(0-t) (ng·h/mL)
Kindly answer with a numeric value in ng·h/mL, unit omitted.

Data point: C=CC(=O)N1CCC[C@@H](n2nc(-c3ccc(Oc4ccccc4)cc3)c3c(N)ncnc32)C1 [PCI-32765] ; AUC(0-t) = 1580

====

Assay: clinical
Conditions: human, plasma, 5 mg/kg, Mean (CV) Tmax, Day 1, cohort 3, 5 mg/kg
OUTCOME MEASURE: Tmax (h)
Kindly answer with a numeric value in h, unit omitted.

Data point: `C=CC(=O)N1CCC[C@@H](n2nc(-c3ccc(Oc4ccccc4)cc3)c3c(N)ncnc32)C1` ; Tmax = 2.3

====

Assay: clinical
Conditions: human, plasma, 12.5 mg/kg, Mean (CV) AUC0-∞, Day 1, cohort 5, 12.5 mg/kg
OUTCOME MEASURE: AUC(0-inf) (ng·h/mL)
Kindly answer with a numeric value in ng·h/mL, unit omitted.

Data point: `C=CC(=O)N1CCC[C@@H](n2nc(-c3ccc(Oc4ccccc4)cc3)c3c(N)ncnc32)C1` ; AUC(0-inf) = 1550

====

Assay: clinical
Conditions: human, plasma, 12.5 mg/kg, Mean AUC0-24h, steady state (Day 8), cohort 5, 12.5 mg/kg
OUTCOME MEASURE: AUC(0-t) (ng·h/mL)
Kindly answer with a numeric value in ng·h/mL, unit omitted.

Data point: C=CC(=O)N1CCC[C@@H](n2nc(-c3ccc(Oc4ccccc4)cc3)c3c(N)ncnc32)C1 [PCI-32765] ; AUC(0-t) = 2940

====

Test: clinical
Conditions: human, plasma, 8.3 mg/kg, Mean (CV) Tmax, Day 1, cohort CD (continuous dosing), 8.3 mg/kg
OUTCOME MEASURE: Tmax (h)
Kindly answer with a numeric value in h, unit omitted.

Data point: `C=CC(=O)N1CCC[C@@H](n2nc(-c3ccc(Oc4ccccc4)cc3)c3c(N)ncnc32)C1` ; Tmax = 2.2

====

Assay: clinical
Conditions: human, plasma, 560 mg, Mean AUC0-24h, steady state (Day 8), Fixed cohort, 560 mg fixed dose
OUTCOME MEASURE: AUC(0-t) (ng·h/mL)
Kindly answer with a numeric value in ng·h/mL, unit omitted.

Data point: `C=CC(=O)N1CCC[C@@H](n2nc(-c3ccc(Oc4ccccc4)cc3)c3c(N)ncnc32)C1` ; AUC(0-t) = 1550
